Kd: recorded values
- system.under.test: T1, His-tagged human HVEM (human, UniProt Q92956 39-202, limits assumed)
- T1 construct: Analyte of the BLI assay, 200 nM in PBS; not shown: His tag
- T1 sequence (looked up): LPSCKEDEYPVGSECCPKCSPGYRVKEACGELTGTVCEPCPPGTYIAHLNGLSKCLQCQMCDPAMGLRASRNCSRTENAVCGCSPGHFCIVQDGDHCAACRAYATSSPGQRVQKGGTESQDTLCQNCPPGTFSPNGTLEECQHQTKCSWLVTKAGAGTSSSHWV
- assay.overview: BLI OctetRed96, mAb captured, 200 nM His-HVEM
- Experimental: Binding of antibodies to HVEM may also be determined by bio-layer interferometry (BLI) on an OctetRed96@ system (Sartorius). (See http://www.fortebio.com/bli_technology.html for general description of a BLI assay.) For this experiment, murine anti-human HVEM antibodies were captured from culture supernatant using anti-mouse IgG Fc capture and immobilized to dip and read biosensors. […] Probes were dipped into PBS assay buffer and the dissociation rate (koff) was measured. […]
recorded.endpoint: Kd (nM)

[[record]]
binder = "Ab_035 (H5S15-9A10A) (antibody, V domains shown, also called Ab_35) VH: DVQLVESGGGLVQPGGSRKLSCAASGFTFSDFGMHWVRQAPEKGLEWVAHISSGSSTIYYADTVKGRFTISRDNPKNTLFLQMTSLRSEDTAMYYCARGAYGNFAWFPYWGQGTLVTVSA VL: DVVMTQTPLSLPVSLGDQASISCRSSQSLVHTNGNTYLHWYLQKPGQSPRLLIYKVSNRFSGVPDRFSGGGSGTDFTLKISRVEAEDLGVYFCSQSTHVPTFGSGTKLEIK"
measurement_units = "nM"
value_measured = 6.58

[[record]]
binder = "Ab_029 (H5S15-14A14B) (antibody, V domains shown, also called Ab_29) VH: EVQLQQSGPELVKPGASVKMSCKASGYTFTSYVMHWVKQKPGQGLEWIGYINPYNDDTNCNEKFKGKATLTSDKSSSTAYMELSRLTSEDSAVYYCAKARGYGSTFYYSMDYWGQGTSVTVSS VL: DIVMTQSQKFMSTSVGDRVSVTCKASQNVGTNVAWYQQRPGQSPKSLIYSASYRYSGVPDRFTGSGSGTDFTLTISNVQSEDLADYFCQQYNSYPYTFGGGAKLEIK"
measurement_units = "nM"
value_measured = 47

[[record]]
binder = "Ab_052 (H5S19-18A17B) (antibody, V domains shown, also called Ab_52) VH: QVQLKESGPGLVAPSQSLSITCTVSGFSLTIYGVHWVRQPPGKGLEWLGVIWAGGIINYNSALMSRLSISKDNSKSQVFLKMNSLQSDDTAMYYCARDWERDSSGPFAYWGQGTLVTVSA VL: DIQMTQTTSSLSASLGDRVTISCSASQGISNYLNWYQQKPDGTVKLLIYYTSSLHSGVPSRFRGSGSGTDYSLTISNLEPEDIATYYCQQYSKLPWTFGGGTKLEIK"
measurement_units = "nM"
value_measured = 90.9

[[record]]
binder = "Ab_054 (H5S19-21A17C) (antibody, V domains shown, also called Ab_54) VH: QVQLKESGPGLVAPSQSLSITCTVSGFSLTSYGVHWVRQPPGKGLEWLGVIWAGGITNYNSALMSRLSISTDNSRSQVFLKMNSLQTDDTAMYYCARDWERDSSGPFPYWGQGTLVTVSA VL: DIQMTQTTSSLSASLGDRVTISCSASQGISNYLNWYQQKPDGTVKLLIYYTSSLHSGVPSRFSGSGSGTDYSLTISNLEPEDIATYFCQQYSKLPWTFGGGTKLEIK"
measurement_units = "nM"
value_measured = 20.4

[[record]]
binder = "Ab_074 (H5S20-52A21A) (antibody, V domains shown, also called Ab_74) VH: EVQLQQSGAELVKPGASVKLSCTASGFNIKDTYIHWLNQRPEQGLEWIGRIDPANGKTKFAPKFQDKATITADTSSNTAYLQLSSLTSEDTAVYYCAGYGNSPWFAYWGQGTLVTVSA VL: DVLMTQTPLSLPVSLGDQASISCRSSQSIVHSNGNTYLEWYLQKPGQSPKLLIYKVSNRVSGVPDRFSGSGSGTDFTLKISRVEAEDLGVYYCFQGSHVPLTFGAGTKLELK"
measurement_units = "nM"
value_measured = 48.2

[[record]]
binder = "Ab_080 (H5S20-27A23A) (antibody, V domains shown, also called Ab_80) VH: EVQLQQSGTVLARPGASVKMSCKASGYSFTSYWMHWLKQRPGQGLEWIGAIYPGNSDTVFNQKFKGKAKLTAVTSATTAYMELSSLTNEDSAVYYCTKEPRTIEGAWFTYWGQGTLVTVSA VL: DIVMTQSPSSLTVPAGEKVTMSCKSSQSLLNSENQKNYLTWYQQKPGQPPKLLIYWASTRESGVPDRFTGSGSGTDFTLTISSVQAEDLAVYYCQSDYSYPLTFGAGTKLELK"
measurement_units = "nM"
value_measured = 7.09

[[record]]
binder = "Ab_087 (H5S20-59A43A) (antibody, V domains shown, also called Ab_87) VH: EVKLVESGGGLVKPGGSLKLSCAASGFTFSSYAMSWVRQTPEKRLEWVASISSGSSTYYPDSVKGRFTISRDNARNILYLQMSSLRSEDTAMYYCAKGRGYGNYLYAMDYWGQGTSVTVSS VL: DIVMTQSQKFMSTSVGDRVSVTCKASQNVGTNVAWYQQKPGQSPKALIYSASYRYSGVPDRFTGSGSGTDFTLTISNVQSEDLAEYFCQQYNSYPLTFGGGTKLEIK"
measurement_units = "nM"
value_measured = 1570

[[record]]
binder = "Ab_079 (H5S20-22A18A) (antibody, V domains shown, also called Ab_79) VH: EVQLQQSGAELVKPGASVKLSCTASGFNIKDTYMHWVKQRPEQGLEWIGRIDPANGNTKYAPKFQGKATITADTSSNTAYLQLSSLTSEDTAVYYCARSFGNYFDYWGQGTTLTVSS VL: NIVLTQSPASLAVSLGQRATISCRASESVDSYGNSFMHWYQQKPGQPPKLLIYLASNLESGVPARFSGSGSRTDFTLTIDPVEADDAATYYCQQNYADPWTFGGGTKLEIK"
measurement_units = "nM"
value_measured = 13.9

[[record]]
binder = "Ab_028 (H5S15-33A29A) (antibody, V domains shown, also called Ab_28) VH: QVQLKQSGPGLVQPSQSLSITCTVSGFSLTTYGVHWVRQSPGKGLEWLGVIWSGGNTDYNPAFISRLSISKDNSKSQVFFKMNTLQASDTAIYYCARRGYNKGYAMDYWGQGTSFTVSS VL: EIVLTQSPALMTASPGEKVTITCSVSSTISSRNLHWYQQKSEASPKPWIYGTSNLASGVPVRFSGSGSGTSYSLTISSMEAEDAATYYCQQWNSYPLTFGSGTKLEIK"
measurement_units = "nM"
value_measured = 6.9

[[record]]
binder = "Ab_006 (H5S14-5A5A) (antibody, V domains shown, also called Ab_6) VH: DVQLQESGPGLVKPSQSLSLTCTVTGYSITSDFAWNWIRQFPGNKLEWMGYIVYSGSTSYNPSLKSRISITRDTSKNQFFLQLNSVTAEDTATYFCTRGMDYWGQGTSVTVSS VL: QIVLTQSPAIISASLGEEVTLTCSASSSVSYMHWYQQKSGTSPKLLIYSTSNLASGVPSRFSGSGSGTFYSLTISSVEAEDAADYYCHQWSSYLTFGAGTKLELK"
measurement_units = "nM"
value_measured = 19.6


Numbers sourced from patent US20240317871A1.
